target: SHP2-C SH2; assay: SH2 binding enrichment of the phosphorylated peptide, bacterial display (enrichment ratio); higher = better substrate or ligand; peptides without Tyr show the background;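 note: peptide library displayed on the E. coli surface as eCPX fusions, selected cells deep-sequenced, score is each peptide's frequency after selection divided by its frequency in the input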
READOUT: SH2 binding enrichment
A bare number is all that is needed in reply.

Example entries begin here.
[[record]]
residue_codes = "FLGRNYLETLM [DUS3L_Y610_D609N_YF]"
observed_result = 1.09

[[record]]
residue_codes = "IRCQGYSHRIL [MYO3B_Y993_R990C]"
observed_result = 0.915

[[record]]
residue_codes = "CLMILHRLKER [PTPRR_Y249_Y249H]"
observed_result = 1.35

[[record]]
residue_codes = "KVALPYKPFFF [POLE_Y100_YF]"
observed_result = 1.28

[[record]]
residue_codes = "ASNFNYFYHRE [KCNA1_Y413_V408A]"
observed_result = 1.02


// query Report SH2 binding enrichment for QLAPQYTYTQG [FLNA_Y1761_A1764T] please.
// result 1.03

// query Consider the sequence GNHISYFQSDG [CACNA1C_Y1757_V1755I_YF] and give its measured SH2 binding enrichment.
// result 0.806

// query Would you kindly share the measured SH2 binding enrichment for FEKFLYFLPAS [DYNC2H1_Y346_H341Y_YF] ?
// result 0.759

====

biological target: Jak2 (UniProt O60674); experiment: phosphorylation enrichment, bacterial display (enrichment ratio); higher = better substrate or ligand; peptides without Tyr show the background
Sequence (O60674 whole entry, looked up): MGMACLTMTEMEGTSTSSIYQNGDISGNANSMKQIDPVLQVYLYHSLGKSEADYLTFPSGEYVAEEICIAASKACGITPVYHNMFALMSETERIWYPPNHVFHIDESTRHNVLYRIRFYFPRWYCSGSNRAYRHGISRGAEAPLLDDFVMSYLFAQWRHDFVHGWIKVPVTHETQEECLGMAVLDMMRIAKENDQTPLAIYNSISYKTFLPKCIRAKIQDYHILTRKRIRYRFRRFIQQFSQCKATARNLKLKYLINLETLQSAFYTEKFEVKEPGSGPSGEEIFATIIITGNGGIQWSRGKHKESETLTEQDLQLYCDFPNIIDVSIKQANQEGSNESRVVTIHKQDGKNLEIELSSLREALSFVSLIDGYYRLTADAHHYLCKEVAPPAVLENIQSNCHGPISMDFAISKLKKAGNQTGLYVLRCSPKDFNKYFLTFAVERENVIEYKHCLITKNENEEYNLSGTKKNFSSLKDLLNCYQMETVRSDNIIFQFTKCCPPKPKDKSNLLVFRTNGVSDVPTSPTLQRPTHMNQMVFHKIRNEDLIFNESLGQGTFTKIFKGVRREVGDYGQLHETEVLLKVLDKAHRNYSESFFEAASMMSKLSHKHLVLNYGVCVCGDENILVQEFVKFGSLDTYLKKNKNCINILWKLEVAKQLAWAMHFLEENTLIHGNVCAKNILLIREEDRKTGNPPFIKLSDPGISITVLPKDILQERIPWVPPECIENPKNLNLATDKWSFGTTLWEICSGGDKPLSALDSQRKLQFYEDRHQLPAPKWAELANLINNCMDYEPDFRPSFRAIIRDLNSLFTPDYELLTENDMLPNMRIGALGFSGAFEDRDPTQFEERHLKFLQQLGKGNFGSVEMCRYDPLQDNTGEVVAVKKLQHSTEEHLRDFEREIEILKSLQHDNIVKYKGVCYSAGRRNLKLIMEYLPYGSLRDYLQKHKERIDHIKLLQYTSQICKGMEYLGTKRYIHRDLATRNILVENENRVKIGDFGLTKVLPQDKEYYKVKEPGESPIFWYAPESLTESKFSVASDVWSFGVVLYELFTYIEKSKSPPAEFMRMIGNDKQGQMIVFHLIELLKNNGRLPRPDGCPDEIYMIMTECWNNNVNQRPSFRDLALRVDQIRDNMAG
Collected phosphorylation enrichment values appear next to each entry.
Please state the value as a number alone, without comment.

Illustrative cases are given below, each with its answer.
[[record]]
residue_codes = "PLDGEYFTLPI [TP53_Y327_Q331P]"
observed_result = 12.1

[[record]]
residue_codes = "SSNTEYLSASD [INSR_Y999_P997T]"
observed_result = 0.82

[[record]]
residue_codes = "FSAGTYPRMEE [SYCN_Y108_L111M]"
observed_result = 0.575

[[record]]
residue_codes = "SYPREYGSQEG [RBM10_Y48]"
observed_result = 0.673

[[record]]
residue_codes = "EMFNPCYGLFE [NEDD4L_Y679_Y679C]"
observed_result = 1.2

[[record]]
residue_codes = "DYTEAYNPKIK [CLK1_Y305]"
observed_result = 0.641


// query # query: phosphorylation enrichment of entry FEKFLYFLPAS [DYNC2H1_Y346_H341Y_YF]
// result 2.67

// query Entry under review: KGEDFYCVTRH [FHL1_Y149_C153R] . Reported phosphorylation enrichment?
// result 1

// query Given the entry KSIQLYDTPFE [SHB_Y297_G293S_YF] , report its measured phosphorylation enrichment.
// result 0.9

// query // lookup phosphorylation enrichment for TSYSGYRYHRH [NKAPL_Y94]
// result 0.439

// query So what does the record say about phosphorylation enrichment for FEEDSYSHVMA [FDPS_Y388_I391V_YF] ?
// result 1.14

// query Name the reported phosphorylation enrichment value associated with the sequence CTTIHYNSMCN [TP53_Y234_Y236S]
// result 0.603

// query What value of phosphorylation enrichment has been recorded for this entry: HSQEDYFECFQ [ZIM2_Y411]
// result 1.25

// query Consider the sequence AQAERYDDMAA [YWHAG_Y20_E15A] and give its measured phosphorylation enrichment.
// result 0.954

Data credit: the supplement of paper PMC10065799
